meta.source: patent US9597407B2

Tested on: bacteria
Assay: Binding of targeting peptides to microorganisms (Table 3)
Details: peptide binding in aqueous buffers that varied depending on peptide solubility; preferably 1x PBS
measured-metric: Target(s) (microorganism bound by the targeting peptide)

>  <substance>
PF-663 (chain 1 ATLIPRKA; chain 2 ATLIPRKA; Peptide with targeting and/or antimicrobial activity)

>  <observed>
Mycobacteria spp

$$$$
>  <substance>
PF-645 (chain 1 SNSVQQG; chain 2 SNSVQQG; Peptide with targeting and/or antimicrobial activity)

>  <observed>
Mycobacteria spp

$$$$
>  <substance>
PF-658 (chain 1 PTTPPPTTPPEIPTGGTVIST; chain 2 PTTPPPTTPPEIPTGGTVIST; Peptide with targeting and/or antimicrobial activity)

>  <observed>
Mycobacteria spp

$$$$

* * *

Tested on: microorganisms
Experiment: Morphology, biofilm and growth disruption by peptides (Table 5)
Format: cell-based
Design: key: A: Peptide aggregates; B: Less hyphal formation; Clumps; Diffuse clumps and small polyps; F: Diffuse growth; H: Thin; I: Growth inhibition; Microcolony formation; Rippled; Small polyps; Thick; W: Halo formation on top, microlonies on bottom
Settings: E. coli
measured-metric: Organism, effect

As a guide, the following entries are already answered.
>  <substance>
PF-053 (KLFGQWGPELGSIYILPALIGSIILIAIVTLILRAMRK; Peptide with targeting and/or antimicrobial activity)

>  <observed>
E. coli (A)

$$$$
>  <substance>
MIHLTKQNTMEALHFIKQFYDMFFILNFNV [PF-040]

>  <observed>
E. coli (C)

$$$$
>  <substance>
AL C SVIKAIEL GIINVHL Q [PF-366]

>  <observed>
E. coli (C)

$$$$
>  <substance>
PF-385 (MIKKSILKIKYYVPVLISLTLILSA; Peptide with targeting and/or antimicrobial activity)

>  <observed>
E. coli (A)

$$$$
>  <substance>
PF-399 (FPIISALLGAIICIAIYSFIVNRKA; Peptide with targeting and/or antimicrobial activity)

>  <observed>
E. coli (C)

$$$$

Prompt line: Record request: Organism, effect value, item PF-398 (ILVVLAGILLVVLSYVGISKFKMNC; Peptide with targeting and/or antimicrobial activity)
Response line: E. coli (C)

Prompt line: Further, for PF-355 (WIAIGLLLYFSLKNQ; Peptide with targeting and/or antimicrobial activity) ?
Response line: E. coli (C)

Prompt line: Further, for PF-344 (DERLPEAKAIRNFNGSVMVLGR; Peptide with targeting and/or antimicrobial activity) ?
Response line: E. coli (A)

* * *

Test system: microorganisms
Assay: Morphology, biofilm and growth disruption by peptides (Table 5)
Format: cell-based
Set-up: key: A: Peptide aggregates; B: Less hyphal formation; Clumps; Diffuse clumps and small polyps; F: Diffuse growth; H: Thin; I: Growth inhibition; Microcolony formation; Rippled; Small polyps; Thick; W: Halo formation on top, microlonies on bottom
Details: S. pneumoniae
measured-metric: Organism, effect (morphology, biofilm and growth disruption)

>  <substance>
PF-685 (chain 1 PTLWLACL; chain 2 PTLWLACL; Peptide with targeting and/or antimicrobial activity)

>  <experimental-target>
microorganisms

>  <observed>
S. pneumoniae (M)

$$$$
>  <substance>
PF-664 (chain 1 DQLCVEYPARVSTG; chain 2 DQLCVEYPARVSTG; Peptide with targeting and/or antimicrobial activity)

>  <experimental-target>
microorganisms

>  <observed>
S. pneumoniae (M)

$$$$
>  <substance>
PF-592 (IMKNYKYFKLFIVKYALF; Peptide with targeting and/or antimicrobial activity)

>  <experimental-target>
microorganisms

>  <observed>
S. pneumoniae (D)

$$$$
>  <substance>
PF-426 (MLQKYTQMISVTKCIITKNKKTQENVDAYN; Peptide with targeting and/or antimicrobial activity)

>  <experimental-target>
microorganisms

>  <observed>
S. pneumoniae (D)

$$$$

* * *

System: microorganisms
Assay: Morphology, biofilm and growth disruption by peptides (Table 5)
Type: cell-based
Design: key: A: Peptide aggregates; B: Less hyphal formation; Clumps; Diffuse clumps and small polyps; F: Diffuse growth; H: Thin; I: Growth inhibition; Microcolony formation; Rippled; Small polyps; Thick; W: Halo formation on top, microlonies on bottom
Settings: S. pneumoniae
measured-metric: Organism, effect (morphology, biofilm and growth disruption)

>  <substance>
PF-546 (PIIAPTIKTQIQ; Peptide with targeting and/or antimicrobial activity)

>  <experimental-target>
microorganisms

>  <observed>
S. pneumoniae (D)

$$$$
>  <substance>
PF-578 (QKANLRIGFTYTSDSNVCNLTFALLGSK; Peptide with targeting and/or antimicrobial activity)

>  <experimental-target>
microorganisms

>  <observed>
S. pneumoniae (D)

$$$$

* * *

Tested on: bacteria
Experiment: Binding of targeting peptides to microorganisms (Table 3)
Conditions: microorganism the targeting peptide binds; binding in aqueous buffers that varied with peptide solubility, preferably 1x PBS
measured-metric: Target(s)

>  <substance>
1T-264 (LEGKFYMAEDFDKTPECFKDYV; Peptide with targeting and/or antimicrobial activity) [Peptide 1T-264]

>  <measured-metric>
Target(s)

>  <observed>
S. sanguinis

$$$$
>  <substance>
1T-237 (EDPVPNHFTLRRNKKEKPSKS; Peptide with targeting and/or antimicrobial activity) [Peptide 1T-237]

>  <measured-metric>
Target(s)

>  <observed>
S. sanguinis

$$$$
>  <substance>
1T-199 (RAGRIKKLSQKEAEPFEN; Peptide with targeting and/or antimicrobial activity) [Peptide 1T-199]

>  <measured-metric>
Target(s)

>  <observed>
S. sanguinis

$$$$

* * *

Tested on: microorganisms
Experiment: Morphology, biofilm and growth disruption by peptides (Table 5)
Type: cell-based
Parameters: key: A: Peptide aggregates; B: Less hyphal formation; Clumps; Diffuse clumps and small polyps; F: Diffuse growth; H: Thin; I: Growth inhibition; Microcolony formation; Rippled; Small polyps; Thick; W: Halo formation on top, microlonies on bottom
Conditions: E. coli
measured-metric: Organism, effect

As a guide, the following entries are already answered.
>  <substance>
PF-370 (VIFLHKESGNLKEIFY; Peptide with targeting and/or antimicrobial activity)

>  <Organism, effect>
E. coli (R)

$$$$
>  <substance>
PF-383 (WSEIEINTKQSN; Peptide with targeting and/or antimicrobial activity)

>  <Organism, effect>
E. coli (R)

$$$$
>  <substance>
PF-379 (VFVVLFIIYLASKLLTKLFPIKK; Peptide with targeting and/or antimicrobial activity)

>  <Organism, effect>
E. coli (C)

$$$$
>  <substance>
PF-403 (LLSTEQLLKYYDGETFDGFQLPSNE; Peptide with targeting and/or antimicrobial activity)

>  <Organism, effect>
E. coli (R)

$$$$
>  <substance>
PF-350 (LAVILRAIVY; Peptide with targeting and/or antimicrobial activity)

>  <Organism, effect>
E. coli (C)

$$$$
>  <substance>
PF-362 (NIERILKEKVWMIRCVE; Peptide with targeting and/or antimicrobial activity)

>  <Organism, effect>
E. coli (C)

$$$$
>  <substance>
PF-376 (MTVFEALMLAIAFATLIVKISNKNDKK; Peptide with targeting and/or antimicrobial activity)

>  <Organism, effect>
E. coli (C)

$$$$
>  <substance>
PF-068 (SHLINNFGLSVINPSTPICLNFSPVFNLLTVYGITCN; Peptide with targeting and/or antimicrobial activity)

>  <Organism, effect>
E. coli (A)

$$$$

Lab note: next substance to report on.
Prompt line: Record request: Organism, effect value, item PF-374 (HLFFVKGMFILCQKNQINDE; Peptide with targeting and/or antimicrobial activity)
Response line: E. coli (C)

* * *

System: bacteria
Assay: Binding of targeting peptides to microorganisms (Table 3)
Conditions: peptide binding in aqueous buffers that varied depending on peptide solubility; preferably 1x PBS
measured-metric: Target(s) (microorganism bound by the targeting peptide)

>  <substance>
PF-780 (AVYDALVALAAAEHRAELATRDARAKDTYEKIGVHVVVAA; Peptide with targeting and/or antimicrobial activity)

>  <observed>
Mycobacteria spp.

$$$$
>  <substance>
PF-785 (MRPQHSPAGKAFVVKKITHEQS; Peptide with targeting and/or antimicrobial activity)

>  <observed>
Mycobacteria spp.

$$$$

* * *

System: microorganisms
Assay: Morphology, biofilm and growth disruption by peptides (Table 5)
Type: cell-based
Design: key: A: Peptide aggregates; B: Less hyphal formation; Clumps; Diffuse clumps and small polyps; F: Diffuse growth; H: Thin; I: Growth inhibition; Microcolony formation; Rippled; Small polyps; Thick; W: Halo formation on top, microlonies on bottom
Details: S. epidermidis

>  <substance>
PF-043 (MIKNETAYQMNELLVIRSAYAK; Peptide with targeting and/or antimicrobial activity)

>  <experimental-target>
microorganisms

>  <Organism, effect>
S. epidermidis (D)

$$$$
>  <substance>
PF-046 (LDFYLTKHLTLML; Peptide with targeting and/or antimicrobial activity)

>  <experimental-target>
microorganisms

>  <Organism, effect>
S. epidermidis (C)

$$$$
>  <substance>
PF-339 (KKIDILINKYMYLSK; Peptide with targeting and/or antimicrobial activity)

>  <experimental-target>
microorganisms

>  <Organism, effect>
S. epidermidis (C)

$$$$
>  <substance>
PF-022 (MINELKNKNSGIMNNYVVTKESKL; Peptide with targeting and/or antimicrobial activity)

>  <experimental-target>
microorganisms

>  <Organism, effect>
S. epidermidis (D)

$$$$
